Target: hGPR40 (Homo sapiens, UniProt O14842)
Sequence (O14842 whole entry): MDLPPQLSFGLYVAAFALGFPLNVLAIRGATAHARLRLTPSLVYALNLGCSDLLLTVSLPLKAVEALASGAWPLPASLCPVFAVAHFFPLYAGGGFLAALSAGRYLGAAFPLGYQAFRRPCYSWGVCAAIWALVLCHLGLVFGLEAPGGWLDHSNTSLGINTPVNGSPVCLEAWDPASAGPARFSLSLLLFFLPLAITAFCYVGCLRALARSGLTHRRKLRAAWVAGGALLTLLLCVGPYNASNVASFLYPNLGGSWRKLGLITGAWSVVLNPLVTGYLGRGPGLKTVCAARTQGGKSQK
Assay: FDSS-based intracellular calcium assay
Format: cell-based
Design: 3xFLAG; expressed in transfected cells
Details: intracellular Ca2+ response, cells expressing GPR40
For each of the molecules below, state its pEC50.
One number for each entry, as −log10 of the molar value.

Each of the following entries comes with a recorded value; kindly state pEC50 for each.
1. COc1ccc(F)c(N2CCC(Oc3ccc(N4N=C(C(F)(F)F)[C@@H](C)[C@@H]4CC(=O)O)cc3)C(F)C2)c1 (single isomer, unassigned) [Example 57 (Isomer 4)]
2. CC(C)c1cccc(N2CCC(Oc3ccc(N4N=C(C(F)(F)F)[C@@H](C)[C@@H]4CC(=O)O)cc3)CC2)c1
3. CC(C)COc1cc(F)c(F)c(N2CCC(Oc3ccc(N4N=C(C(F)(F)F)[C@@H](C)[C@@H]4CC(=O)O)cc3)CC2)c1
4. C[C@@H]1C(C(F)(F)F)=NN(c2ccc(OC3CCN(c4ccccn4)CC3)cc2)[C@H]1CC(=O)O
5. CCOc1ccc(F)c(N2CC[C@H](Oc3ccc(N4N=C(C(F)(F)F)[C@@H](C)[C@@H]4CC(=O)O)cc3)[C@@H](C)C2)c1

-- reply
7.18
5.67
5.32
5.58
5.92

-- ask Look at this molecule and give its reported pEC50. CCOc1ccc(F)c(N2CCC(Oc3ccc(N4N=C(C(F)(F)F)[C@@H](C)[C@@H]4CC(=O)O)cc3)C(C(C)C)C2)c1 (single isomer, unassigned) [Example 26 (Isomer 2)]
-- reply 7.09

====

For each of the molecules below, state its pEC50.
Target: hGPR40 (Homo sapiens, UniProt O14842)
Assay: FDSS-based intracellular calcium assay
Format: cell-based
Design: 3xFLAG; expressed in transfected cells
Settings: intracellular Ca2+ response, cells expressing GPR40
One number for each entry, as −log10 of the molar value.

// solved cases for pEC50 follow
# molecule, observable, quantitativeReadout
measured = [
    ("COc1cc(F)c(F)c(N2CCC(Oc3ccc(N4N=C(C(F)(F)F)[C@@H](C)[C@@H]4CC(=O)O)cc3)C(C)C2)c1 (single isomer, unassigned) [Example 8 (Isomer 2)]", "pEC50", 6.63),
    ("CCOc1cc(F)c(F)c(N2CCC(Oc3ccc(N4N=C(C(F)(F)F)[C@@H](C)[C@@H]4CC(=O)O)cc3)CC2)c1 [Example 17]", "pEC50", 6.54),
    ("[2H]C([2H])([2H])Oc1cc(N2CC[C@@H](Oc3ccc(N4N=C(C(F)(F)F)[C@@H](C)[C@@H]4CC(=O)O)cc3)[C@H](C)C2)c(Cl)cn1 [Example 87]", "pEC50", 7.13),
    ("COc1cc(N2CCC(Oc3ccc(N4N=C(C(F)(F)F)[C@@H](C)[C@@H]4CC(=O)O)cc3)C(C)C2)c(Cl)cn1 (stereo partly drawn) [Example 81, Isomer 2]", "pEC50", 7.15),
    ("COc1ccc(F)c(N2CCC(Oc3ccc(N4N=C(C(F)(F)F)[C@@H](CC5CC5)[C@@H]4CC(=O)O)cc3)CC2)c1 (single isomer, unassigned) [Example 90, Isomer 2]", "pEC50", 6.81),
]

From here, focus on the item given below.
-- ask Hi! What's the reported pEC50 for COc1ccc(F)c(N2CCC(Oc3ccc(N4N=C(C(F)(F)F)[C@@H](C)[C@@H]4CC(=O)O)cc3)C(F)C2)c1 (single isomer, unassigned) [Example 57 (Isomer 3)] on hGPR40 (Homo sapiens, UniProt O14842)?
-- reply 6.15

====

Biological target: hGPR40 (Homo sapiens, UniProt O14842)
Test: FDSS-based intracellular calcium assay
Type: cell-based
Design: 3xFLAG; expressed in transfected cells
Conditions: intracellular Ca2+ response, cells expressing GPR40
Criterion: EC50 strictly under 400 nM. Met: fulfilled. Not met: not fulfilled.

Would you please look over these solved cases?
# molecule, classification
records = [
    ("CCOc1cc(F)c(F)c(N2CCC(Oc3ccc(N4N=C(C(F)(F)F)[C@@H](C)[C@@H]4CC(=O)O)cc3)C(C)C2)c1 (single isomer, unassigned) [Example 10 (Isomer 1)]", "not fulfilled"),
    ("C[C@@H]1C(C(F)(F)F)=NN(c2ccc(OC3CCN(c4cc(O)ccc4F)CC3)cc2)[C@H]1CC(=O)O", "fulfilled"),
    ("CC[C@@H]1C(C(F)(F)F)=NN(c2ccc(OC3CCN(c4cc(OC)ccc4F)CC3)cc2)[C@H]1CC(=O)O (single isomer, unassigned) [Example 88, Isomer 1]", "fulfilled"),
    ("Cc1cccc(C)c1N1CCC(Oc2ccc(N3N=C(C(F)(F)F)[C@@H](C)[C@@H]3CC(=O)O)cc2)CC1", "not fulfilled"),
]

Here is another molecule to look at.
-- ask Take the molecule COc1cc(F)cc(N2CCC(Oc3ccc(N4N=C(C(F)(F)F)[C@@H](C)[C@@H]4CC(=O)O)cc3)CC2)n1 and say whether its EC50 is less than 400 nM.
-- reply not fulfilled

====

For each of the compounds below, state its pEC50.
Target: UniProt:O14842
Experiment: FDSS-based intracellular calcium assay
Type: cell-based
Set-up: 3xFLAG; expressed in transfected cells
Details: intracellular Ca2+ response, cells expressing GPR40
Numbers only, as −log10 of the molar value.

// solved cases for pEC50 follow
# compound, quantitativeReadout
measured = [
    ("C[C@@H]1C(C(F)(F)F)=NN(c2ccc(OC3CCN(c4ccc(Cl)cc4F)CC3)cc2)[C@H]1CC(=O)O", 6.40),
    ("CC(C)Oc1ccc(F)c(N2CCC(Oc3ccc(N4N=C(C(F)(F)F)[C@@H](C)[C@@H]4CC(=O)O)cc3)C(C)C2)c1 (stereo partly drawn)", 6.51),
]

Each of the following entries comes with a recorded value; kindly state pEC50 for each.
1. COC(=O)c1ccc(C2=NN(c3ccc(OC4CCN(c5cc(OC)ccc5F)CC4)cc3)[C@@H](CC(=O)O)[C@@H]2C)cc1
2. COc1cc(N2CCC(Oc3ccc(N4N=C(C(F)(F)F)[C@@H](C)[C@@H]4CC(=O)O)cc3)CC2)c(Cl)cn1
3. COc1cc(Cl)cc(N2CCC(Oc3ccc(N4N=C(C(F)(F)F)[C@@H](C)[C@@H]4CC(=O)O)cc3)CC2)n1
4. COc1ccc(F)c(N2CCC(Oc3ccc(N4N=C(C(F)(F)F)[C@@H](C)[C@@H]4CC(=O)O)cc3)C(F)C2)c1 (single isomer, unassigned) [Example 57 (Isomer 1)]

-- reply
1. 6.86
2. 6.96
3. 5.70
4. 6.53

====

For each of the compounds below, state its EC50.
Biological target: hGPR40 (Homo sapiens, UniProt O14842)
Assay: FDSS-based intracellular calcium assay
Assay type: cell-based
Design: 3xFLAG; expressed in transfected cells
Conditions: intracellular Ca2+ response, cells expressing GPR40
One number for each entry, in µM.

// solved cases for EC50 follow
# smilesRecord, unitTag, EC50
rows = [
    ("CCOc1cc(N2CC[C@H](Oc3ccc(N4N=C(C(F)(F)F)[C@@H](C)[C@@H]4CC(=O)O)cc3)[C@@H](C)C2)c(Cl)cn1", "µM", 0.76),
    ("CCOc1ccc(F)c(N2CCC(Oc3ccc(N4N=C(C(F)(F)F)[C@@H](C)[C@@H]4CC(=O)O)cc3)CC2)c1", "µM", 0.217),
]

-- ask Hi! What's the reported EC50 for COc1cc(F)c(F)c(N2CCC(Oc3ccc(N4N=C(C(F)(F)F)[C@@H](C)[C@@H]4CC(=O)O)cc3)CC2)c1 on hGPR40 (Homo sapiens, UniProt O14842)?
-- reply 0.273

====

Biological target: UniProt O14842
Experiment: GPR40 IP-One HTRF assay in HEK293/GPR40 inducible cell lines
Format: cell-based
Set-up: expressed in transfected cells
Conditions: HEK293 cells with tetracycline-inducible human GPR40; read-out: hGPR40 IP1 EC50
For each of the compounds below, state its EC50.
Numbers only, in nM.

// solved cases for EC50 follow
# compound, unitTag, EC50
data = [
    ("COc1cc(N2CC[C@@H](Oc3ccc(N4N=C(C(F)(F)F)[C@@H](C)[C@@H]4CC(=O)O)cc3)[C@H](C)C2)c(Cl)cn1 (single isomer, unassigned) [Example 81, Isomer 2 (neutral form)]", "nM", 9),
    ("CCOc1ccc(F)c(N2CCC(Oc3ccc(N4N=C(C(F)(F)F)[C@@H](C)[C@@H]4CC(=O)O)cc3)C(CC)C2)c1 (single isomer, unassigned) [Example 25 (Isomer 2)]", "nM", 21),
    ("CCOc1ccc(F)c(N2CCC(Oc3ccc(N4N=C(C(F)(F)F)[C@@H](C)[C@@H]4CC(=O)O)cc3)C(CC(C)C)C2)c1 (single isomer, unassigned) [Example 27 (Isomer 2)]", "nM", 84),
    ("[2H]C([2H])([2H])Oc1cc(N2CC[C@@H](Oc3ccc(N4N=C(C(F)(F)F)[C@@H](C)[C@@H]4CC(=O)O)cc3)[C@H](C)C2)c(Cl)cn1 [Example 87]", "nM", 6),
]

Each of the following entries comes with a recorded value; kindly state EC50 for each.
1. COc1cc(F)c(F)c(N2CCC(Oc3ccc(N4N=C(C(F)(F)F)[C@@H](C)[C@@H]4CC(=O)O)cc3)CC2)c1 [Example 16]
2. CCOc1ccc(F)c(N2CCC(Oc3ccc(N4N=C(C(F)(F)F)[C@@H](C)[C@@H]4CC(=O)O)cc3)C(CC(C)C)C2)c1 (single isomer, unassigned) [Example 27 (Isomer 1)]
3. COc1ccc(F)c(N2CCC(Oc3ccc(N4N=C(C(F)(F)F)[C@@H](C)[C@@H]4CC(=O)O)cc3)C(F)C2)c1 (single isomer, unassigned) [Example 57 (Isomer 4)]
4. CCc1cccc(N2CCC(Oc3ccc(N4N=C(C(F)(F)F)[C@@H](C)[C@@H]4CC(=O)O)cc3)CC2)c1 [Example 71]
5. CCOc1ccc(F)c(N2CC[C@@H](Oc3ccc(N4N=C(C(F)(F)F)[C@@H](C)[C@@H]4CC(=O)O)cc3)[C@H](C)C2)c1 [Example 29]
6. CCc1ccc(F)c(N2CCC(Oc3ccc(N4N=C(C(F)(F)F)[C@@H](C)[C@@H]4CC(=O)O)cc3)CC2)c1 [Example 65]
7. CCOc1cc(F)c(F)c(N2CCC(Oc3ccc(N4N=C(C(F)(F)F)[C@@H](C)[C@@H]4CC(=O)O)cc3)CC2)c1 [Example 17]
8. CC[C@@H]1C(C(F)(F)F)=NN(c2ccc(OC3CCN(c4cc(OC)ccc4F)CC3)cc2)[C@H]1CC(=O)O (single isomer, unassigned) [Example 88, Isomer 1]

-- reply
[133, 90, 11, 224, 11, 297, 294, 18]
